tested on: biotinyl-Leu-oxazolone; assay: self-aminoacylation, catalytic enhancement (BLO) (fold over background); higher = more active; k-Seq, kA / k0A0; sequences stand for … in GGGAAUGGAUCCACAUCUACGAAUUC…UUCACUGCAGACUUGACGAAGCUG
Fewer inactive variants are shown than the library holds.
endpoint_name: self-aminoacylation

- AAGUUAGCUAAUAGUCGCGAG [Fam3.1 aminoacylation ribozyme variant]: 2.09
- CUACGUCAAACAAUGGGUCUG [Fam1A.1 aminoacylation ribozyme variant]: 1.62
- CCACACUUCGCGCAAUCGGUC [Fam1B.1 aminoacylation ribozyme variant]: 2.41
- AUUCACCUAGGUCAUGGUGUG [Fam2.2 aminoacylation ribozyme variant]: 0.994
- AUUACGCUUGUCAUCGAGUGA [Fam2.1 aminoacylation ribozyme variant]: 3.93
- AUUACCCUGGUCAACGAGUAA [Fam2.1 aminoacylation ribozyme variant]: 1.53
- AAGCUGGCUAAUAGUCGCAAG [Fam3.1 aminoacylation ribozyme variant]: 2.68
- AUUCACCAAGUUCAUCGGGUG [Fam2.2 aminoacylation ribozyme variant]: 4.31
- AAGUUUGCUAAUGGUCGCCAG [Fam3.1 aminoacylation ribozyme variant]: 1.11
- CUACUUCAGACAAACGGUCUG [Fam1A.1 aminoacylation ribozyme variant]: 0.908
- AUUACCCUUGGCAUCGAGUGA [Fam2.1 aminoacylation ribozyme variant]: 6.72
- CUAUUUCAAAGAAUCGGUCUG [Fam1A.1 aminoacylation ribozyme variant]: 0.86
- AUUCACCUAGGGCAUCGGGUG [Fam2.2 aminoacylation ribozyme variant]: 4.05
- AUUACCGUGGUCUUCGAGUGA [Fam2.1 aminoacylation ribozyme variant]: 5.05
- AAGUUUGUUAAUAGUCGUAAG [Fam3.1 aminoacylation ribozyme variant]: 0.902
- AUUACCCUGGUCAUCGAGCGG [Fam2.1 aminoacylation ribozyme variant]: 2.9
- AAGUUUGAUAAUCGUCGCAAG [Fam3.1 aminoacylation ribozyme variant]: 1.26
- AUUACCCAGGUCAUCAAGUGA [Fam2.1 aminoacylation ribozyme variant]: 1.97
- CCACACUUCAAGCAAUCCGAC [Fam1B.1 aminoacylation ribozyme variant]: 0.586
- AAGUUUGCUAAUUGUCGCAUG [Fam3.1 aminoacylation ribozyme variant]: 1.32
- AUCAACCUGGUCAUCGAGUGA [Fam2.1 aminoacylation ribozyme variant]: 11.9
- AGUAACCUGGUCAUCGAGUGA [Fam2.1 aminoacylation ribozyme variant]: 5.02
- AUUACCUUGGUCAUCGGGUGA [Fam2.1 aminoacylation ribozyme variant]: 10.6
- AUUACCCUGGUCAUCGGGAGA [Fam2.1 aminoacylation ribozyme variant]: 4.4
- AUUACCCUGCUCAUCGAGAGA [Fam2.1 aminoacylation ribozyme variant]: 0.702
- CUGCUUCCAACAAUCGGUCUG [Fam1A.1 aminoacylation ribozyme variant]: 0.73
- CCACACUUCAAGCAACCAGUC [Fam1B.1 aminoacylation ribozyme variant]: 0.725
- GGUACCCUGGUCAUCGAGUGA [Fam2.1 aminoacylation ribozyme variant]: 12.6
- AUUACGCUAGUCAUCGAGUGA [Fam2.1 aminoacylation ribozyme variant]: 3.48
- AUUCACAUUGGUCAUCGGGUG [Fam2.2 aminoacylation ribozyme variant]: 12.8
- CCGAACUUCAAGCAAUCGGUC [Fam1B.1 aminoacylation ribozyme variant]: 1.68
- AAGAUUGCUAAUAGUCGCAUG [Fam3.1 aminoacylation ribozyme variant]: 1.91
- AAGUUUGCAAAUAGUCGCAAA [Fam3.1 aminoacylation ribozyme variant]: 1.79
- AUACUUCAAACAAUCAGUCUG [Fam1A.1 aminoacylation ribozyme variant]: 0.979
- AUUCACCUAGGACAUAGGGUG [Fam2.2 aminoacylation ribozyme variant]: 4.7
